Tested on: TOV-21G (ovarian clear cell carcinoma)
method summary: In vitro antiproliferation assay, TOV-21G cells
Assay type: cell-based
experimental context: Homo sapiens, TOV21G; TOV-G21
pIC50: −log10 of the molar value.
property label: pIC50

Prompt: Kindly indicate its recorded pIC50. Item: Cc1cc(Nc2ncc(F)c(N[C@H]3[C@@H](C(N)=O)[C@@H]4C=C[C@H]3C4)n2)ccc1N1CCN(C)CC1 (single isomer, unassigned) [Compound 60a]
Completion: ≥ 8.00

* * *

Tested on: H1299 (non-small cell lung carcinoma)
method summary: In vitro antiproliferation assay, H1299 cells (TABLE 1 6 point assay; TABLE 2)
Type: cell-based
experimental context: Homo sapiens, NCI-H1299, 6 point assay; H1299 cells; read-out: IC50, H1299 cells
pIC50: −log10 of the molar value.
property label: pIC50

Examples from the recorded data:
{"columns": ["compound", "pIC50"],
 "data": [
  ["CN1CCN(C(=O)CCCc2ccc(Nc3ncc(F)c(N[C@H]4CCC[C@H]4C(N)=O)n3)cc2)CC1 (racemic)", "5.00 to 6.00"],
  ["CN1CCN(c2ccc(Nc3ncc(F)c(NC4CCCC4C(N)=O)n3)cc2)CC1 (centres unmarked)", "6.00 to 7.00"],
  ["COC(=O)[C@@H]1CC[C@H](Nc2nc(Nc3ccc(N4CCN(C)CC4)c(C)c3)ncc2F)C1", "5.00 to 6.00"],
  ["Cc1cc(Nc2ncc(F)c(N[C@@H]3CCC[C@H]3C(N)=O)n2)ccc1N1CCN(C)CC1 [15c]", "5.00 to 6.00"],
  ["CNC(=O)c1cc(Nc2ncc(F)c(NC3C4C=CC(C4)C3C(N)=O)n2)ccc1N1CCN(C)CC1 (racemic)", "6.00 to 7.00"],
  ["Cc1cc(Nc2ncc(F)c(NC3(C(N)=O)CC=CC3)n2)ccc1N1CCN(C)CC1", "< 5.00"]
]}

Please go through the list and note pIC50 for each compound.
1. Cc1cc(Nc2ncc(F)c(N[C@H]3[C@@H](C(N)=O)[C@@H]4C=C[C@H]3C4)n2)ccc1N1CCN(C)CC1 [compound 234]
2. CN1CCN(C(=O)CCc2ccc(Nc3ncc(F)c(N[C@H]4CCC[C@H]4C(N)=O)n3)cc2)CC1 (racemic)
3. NC(=O)[C@@H]1[C@H](Nc2nc(Nc3ccc(C4CCNCC4)cc3)ncc2F)[C@H]2C=C[C@@H]1C2
4. Cc1cc(Nc2ncc(F)c(N[C@@H]3CCC[C@H]3C(=O)O)n2)ccc1N1CCN(C)CC1

Completion:
6.00 to 7.00
5.00 to 6.00
6.00 to 7.00
< 5.00

* * *

Tested on: SU86.86 (pancreatic carcinoma)
method summary: In vitro antiproliferation assay, SU86.86 cells
Assay type: cell-based
experimental context: Homo sapiens, SU.86.86
pIC50: −log10 of the molar value.
property label: pIC50

Prompt: Give SU86.86 (pancreatic carcinoma) pIC50 for the following compound: Cc1cc(Nc2ncc(F)c(N[C@H]3[C@@H](C(N)=O)[C@@H]4C=C[C@H]3C4)n2)ccc1N1CCN(C)CC1 (single isomer, unassigned) [Compound 60a]
Completion: ≥ 7.70

* * *

Tested on: L1210 (mouse lymphocytic leukemia)
method summary: In vitro antiproliferation assay, L1210 cells
Format: cell-based
experimental context: Mus musculus
property label: IC50

Some solved entries appear below for comparison.
{"columns": ["compound", "subject of test", "IC50"],
 "data": [
  ["Cc1cc(Nc2ncc(F)c(NC3C4C=CC(C4)C3C(N)=O)n2)ccc1N1CCN(C)CC1 (racemic)", "L1210 (mouse lymphocytic leukemia)", "≤ 1000 nM"],
  ["Cc1cc(Nc2ncc(F)c(N[C@@H]3CCC[C@@H]3C(N)=O)n2)ccc1N1CCN(C)CC1", "L1210 (mouse lymphocytic leukemia)", "≤ 1000 nM"],
  ["Cc1cc(Nc2ncc(F)c(N[C@H]3[C@@H](C(N)=O)[C@@H]4C=C[C@H]3C4)n2)ccc1N1CCN(C)CC1 (single isomer, unassigned) [Compound 60a]", "L1210 (mouse lymphocytic leukemia)", "≤ 20 nM"]
]}

Please turn your attention to the following entry.
Prompt: Param request: IC50 | system L1210 (mouse lymphocytic leukemia) | item Cc1cc(Nc2ncc(F)c(NC3C(C(N)=O)[C@H]4C=C[C@@H]3C4)n2)ccc1N1CCN(C)CC1 (stereo in doubt) [Compound 60b]
Completion: > 1000 nM

* * *

Tested on: A549 (lung carcinoma)
method summary: In vitro antiproliferation assay, A549 cells (TABLE 1 6 point assay; TABLE 2)
Type: cell-based
experimental context: Homo sapiens, A549, 6 point assay; A549 cells; read-out: IC50, A549 cells
property label: IC50

{"columns": ["compound", "IC50"],
 "data": [
  ["CCN1CCN(c2ccc(Nc3ncc(F)c(NC4C5C=CC(C5)C4C(N)=O)n3)cc2C)CC1 (racemic) [compound 241]", "≤ 100 nM"],
  ["Cc1cc(Nc2ncc(F)c(NC3CCCC3C(N)=O)n2)ccc1N1CCN(C)CC1 (centres unmarked) [compound 206]", "100 to 1000 nM"],
  ["Cc1cc(Nc2ncc(F)c(N[C@H]3[C@@H](C(N)=O)[C@@H]4C=C[C@H]3C4)n2)ccc1N1CCN(C)CC1 (single isomer, unassigned) [Compound 60a]", "≤ 100 nM"],
  ["COCc1cc(Nc2ncc(F)c(NC3C4C=CC(C4)C3C(N)=O)n2)ccc1N1CCN(C)CC1 (racemic) [compound 235]", "≤ 100 nM"],
  ["Cc1cc(Nc2ncc(F)c(N[C@H]3C=CC[C@H]3C(N)=O)n2)ccc1N1CCN(C)CC1 (racemic) [Compound 286]", "100 to 1000 nM"],
  ["CCOC(=O)[C@@H]1CCC[C@H]1Nc1nc(Nc2ccc(N3CCN(C)CC3)c(C)c2)ncc1F [compound 210]", "1000 to 10000 nM"]
]}

Look at each compound and report its IC50.
1. Cc1cc(Nc2ncc(F)c(NC3C4C=CC(C4)C3C(N)=O)n2)ccc1N1CCCC1 (racemic) [Compound 288]
2. CN1CCN(c2ccc(Nc3ncc(F)c(N[C@H]4CCC[C@H]4C(N)=O)n3)cc2CO)CC1 (racemic) [compound 217]
3. Cc1cc(Nc2ncc(F)c(N[C@H]3C=CCC[C@H]3C(N)=O)n2)ccc1N1CCN(C)CC1 (racemic) [compound 227]
4. CN1CCN(c2ccc(Nc3ncc(F)c(NC4C5C=CC(C5)C4C(N)=O)n3)cc2F)CC1 (racemic) [compound 239]
5. COc1cc(Nc2ncc(F)c(NC3C4C=CC(C4)C3C(N)=O)n2)ccc1N1CCN(C)CC1 (racemic) [compound 256]

Completion:
1. 100 to 1000 nM
2. 100 to 1000 nM
3. 1000 to 10000 nM
4. ≤ 100 nM
5. ≤ 100 nM

Hello, I would appreciate it if you could give IC50 for each entry below.
1. Cc1cc(Nc2ncc(F)c(NC3C(C(N)=O)[C@H]4C=C[C@@H]3C4)n2)ccc1N1CCN(C)CC1 (stereo in doubt) [Compound 60b]
2. CN1CCN(c2cccc(Nc3ncc(F)c(NC4C5C=CC(C5)C4C(N)=O)n3)c2)CC1 (racemic) [compound 231]
3. Cc1cc(Nc2ncc(F)c(NC3CC=CC3)n2)ccc1N1CCN(C)CC1 [compound 237]

Completion:
1000 to 10000 nM
≤ 100 nM
100 to 1000 nM

* * *

Tested on: A549 (lung carcinoma)
method summary: In vitro antiproliferation assay, A549 cells (TABLE 1 6 point assay; TABLE 2)
Type: cell-based
experimental context: Homo sapiens, A549, 6 point assay; A549 cells; read-out: IC50, A549 cells
Protocol: Certain compounds were tested against other cell types for their ability to inhibit proliferation in standard antiproliferation assays.
Record form. Attribute: IC50. Fill in for each entry.

{"columns": ["compound", "IC50"],
 "data": [
  ["Cc1cc(Nc2ncc(F)c(N[C@H]3CCC[C@H]3C(N)=O)n2)ccc1N1CC2CC1CN2C (mixture of isomers) [compound 282]", "100 to 1000 nM"],
  ["Cc1cc(Nc2ncc(F)c(NC3C4C=CC(C4)C3C(N)=O)n2)ccc1O (racemic) [compound 250]", "≤ 100 nM"]
]}

Hi! Can you tell me IC50 for each of these compounds?
1. CN1CCN(c2ccc(Nc3ncc(F)c(NC4CCCC4C(N)=O)n3)cc2Cl)CC1 (stereo not shown) [compound 202]
2. Cc1cc(Nc2ncc(F)c(NC3C4C=CC(C4)C3C(N)=O)n2)ccc1N1CCN(C)CC1 (racemic) [compound 221]
3. COC(=O)[C@@H]1CCC[C@@H]1Nc1nc(Nc2ccc(N3CCN(C)CC3)c(C)c2)ncc1F (racemic) [compound 218]
4. Cc1cc(Nc2ncc(F)c(N[C@@H]3CCC[C@H]3C(N)=O)n2)ccc1N1CCN(C)CC1 [15c]
5. Cc1cc(Nc2ncc(F)c(NC3C4C=CC(C4)C3C(N)=O)n2)ccc1N1CCSCC1 (racemic) [compound 251]

Completion:
1: 100 to 1000 nM; 2: ≤ 100 nM; 3: 1000 to 10000 nM; 4: 1000 to 10000 nM; 5: ≤ 100 nM
